// provenance: PubChem BioAssay (NCI)

Tested on: A549/ATCC NSCLC
Assay: NCI-60 one-dose screen, 48 h
Details: 10 µM
About 83,000 compounds went through this panel and 20% of them were active in at least one assay; those are over-represented in the sample as a whole. Calls of active or inactive are those of the source. The calls were made as follows: active = growth percent below 10; inactive = the rest.
Thanks in advance; please answer with one of these: true (1) = active, false (0) = inactive

Just curious, what result did `CCOC(=O)c1ccc(NC(=O)Nc2ncc(Cl)cc2Cl)cc1` get here?
false (0)

Just curious, what result did `O=S(=O)(NCCCNc1nccc(-c2c(-c3ccc(F)cc3)nc3sccn23)n1)c1ccc(F)cc1` get here?
false (0)

Just curious, what result did `O=C(Nc1ccc(CO)cc1)c1ccccc1Nc1ccnc(C(F)(F)F)c1` get here?
false (0)

Just curious, what result did `C[C@]12CC[C@@H]3c4ccc(O)cc4C[C@@H](O)[C@H]3[C@@H]1CC[C@@H]2O` get here?
false (0)

Just curious, what result did CCCCC(CCCCCC(CCCC)NCc1ccc2c(c1)OCO2)NCc1ccc2c(c1)OCO2 (centres undefined) get here?
true (1)

Just curious, what result did CCc1ccc2c(c1)N(CCO)C1=C(C(=O)OC1)C2c1cc(OC)c(OC)c(OC)c1 (centres undefined) get here?
false (0)

Just curious, what result did OCC1OC(n2cnc3c(N/N=C\c4ccccn4)ncnc32)C(O)C1O (centres undefined) get here?
false (0)

Just curious, what result did `CC/C(=C(/c1ccc(OCCN(C)C)cc1)c1ccc(OC(=O)CCCCC(=O)c2c(C)[nH]c(/C=C3\N=C(c4ccc[nH]4)C=C3OC)c2C)cc1)c1ccccc1` get here?
false (0)

Just curious, what result did `CC(=O)[C@H]1CC[C@H]2[C@@H]3CCC4=CC(=O)C=C[C@]4(C)[C@H]3CC[C@]12C` get here?
false (0)

Just curious, what result did COc1ccc(CN2CCC(N3CCCC3=O)c3cc(Cl)ccc32)cc1 (centres undefined) get here?
false (0)

Just curious, what result did `COc1ccc2c(c1)O/C(=C\c1ncc([N+](=O)[O-])n1C)C2=O` get here?
true (1)

Just curious, what result did `C#Cc1ccc(-n2c(/C=C/c3ccc(O)c(OC)c3)nc3ncccc3c2=O)cc1` get here?
false (0)

Just curious, what result did `COc1ccc2c(c1)nc(N)c1c3cccnc3cn21` get here?
false (0)

Just curious, what result did `N=C(N)c1ccc(-c2ccc(-c3cccs3)o2)cc1` get here?
false (0)

Just curious, what result did CCCCN(CCCC)CCCCCCCCC(O)c1cc2ccccc2c2ccccc12 (centres undefined) get here?
false (0)

Just curious, what result did `COc1ccc(OC)c(/C=C/c2nc(SC)n(-c3ccc(Cl)cc3)n2)c1` get here?
false (0)

Just curious, what result did `O=C1/C(=C\c2ccccc2)CN(C(=O)c2ccccc2F)C/C1=C\c1ccccc1` get here?
false (0)

Just curious, what result did `CCOC(=O)N1C/C(=C/c2ccc(Cl)cc2)C(=O)/C(=C/c2ccc(Cl)cc2)C1` get here?
false (0)

Just curious, what result did `Clc1cccc(-c2nc(-c3cccs3)no2)c1` get here?
false (0)

Just curious, what result did O=C1OCC2=C1C(c1cccc(Cl)c1)c1cc3c(cc1N2CCO)OCCO3 (centres undefined) get here?
false (0)

Just curious, what result did `O=C1/C(=C\c2ccccc2)CN(C(=O)c2ccccc2)C/C1=C\c1ccccc1` get here?
false (0)

Just curious, what result did `O=C(Nc1cccc(-n2cc(-c3ccncc3)c(-c3cc(O)cc(Cl)c3)n2)c1)c1cc(C(F)(F)F)cc(C(F)(F)F)c1` get here?
false (0)

Just curious, what result did `CCN(CC)CCOc1nc2ccc(OC)cc2c2c1-c1ccc(OC)cc1C2=O` get here?
true (1)

Just curious, what result did `COc1cc(-c2cc(/C=C/C(=O)c3ccc(F)c(F)c3)[nH]n2)cc(OC)c1OC` get here?
false (0)

Just curious, what result did `O=C1/C(=C/c2ccc([N+](=O)[O-])s2)Oc2ccccc21` get here?
true (1)

Just curious, what result did `CSCCCNC(=O)c1ccc2c(c1)/C(=C/c1[nH]c(C)cc1C)C(=O)N2` get here?
false (0)

Just curious, what result did O=C1NC(=O)N(Cc2ccccc2)CC1Br (centres undefined) get here?
false (0)

Just curious, what result did `COc1cc(C(=O)N2CCN(c3ccccc3OC)CC2)c(N)cc1OCCCN1CCN(c2ccccc2OC)CC1` get here?
false (0)

Just curious, what result did `Cc1cccc2c(NCCN(C)C)c3cccc(C(=O)NCCN(C)C)c3nc12` get here?
false (0)

Just curious, what result did `CC(C)N(CCNc1nc(C(Cl)(Cl)Cl)nc2cc(Cl)ccc12)C(C)C` get here?
true (1)

Just curious, what result did `COc1ccc(-c2nc3sc(-c4ccccc4)c(-c4ccccc4)n3c2/C=C/C(=O)c2ccccn2)cc1` get here?
false (0)

Just curious, what result did `CC(C)C[C@H](NC(=O)[C@H](Cc1cccc2ccccc12)NS(=O)(=O)c1cccc2cccnc12)B(O)O` get here?
true (1)

Just curious, what result did `COc1ccc(-c2csc(NC(=O)CSc3nc(C)c(-c4ccccc4)n3Nc3ccccc3)n2)cc1` get here?
false (0)

Just curious, what result did `CN(C)CCN1C(=O)c2cccc3c(-c4ccc5ncn(C6CCCCC6)c5c4)ccc(c23)C1=O` get here?
true (1)

Just curious, what result did CCOC(=O)N1C=CC2C=CC1C1C=CC=CC2N1C(=O)OCC (centres undefined) get here?
false (0)

Just curious, what result did `COc1cc(Cl)cc(-c2nn(-c3cccc(NC(=O)c4ccc(N5CCOCC5)c(C(F)(F)F)c4)c3)cc2-c2ccncc2)c1` get here?
false (0)

Just curious, what result did `COc1ccc([N+](=O)[O-])c(C(=O)O)c1` get here?
false (0)

Just curious, what result did `COc1cc(/C=N/NC(=O)c2ccccc2Nc2cccc(C(F)(F)F)c2)cc(OC)c1OC` get here?
false (0)

Just curious, what result did `CCOC(=O)N1C/C(=C/c2ccc(F)cc2)C(=O)/C(=C/c2ccc(F)cc2)C1` get here?
false (0)

###

Would you kindly list growth for each of these compounds?
Tested on: RXF 393 renal
Assay: NCI-60 one-dose screen, 48 h (100 = growth as untreated, 0 = no growth, -100 = all killed)
Conditions: 10 µM
The panel holds about 83,000 compounds, 20% with a hit somewhere; the sample as a whole holds those more often.
Please state the figure in %; there is no need to write the unit.

Given the compound `COc1cc2nc(Nc3cccc(NC(C)=O)c3)nc(N)c2cc1OC` , what is its reported growth?
94.1

Given the compound `ClC(Cl)(Cl)c1nc2nccnc2[nH]1` , what is its reported growth?
111

Given the compound `CSc1nc(=O)n(Cc2ccc(F)cc2)c(=O)n1Cc1ccc(C)cc1` , what is its reported growth?
113

Given the compound `Cc1nc2ccc(CN(C)c3ccc(C(=O)N[C@@H](CCC(=O)O)C(=O)O)s3)cc2c(=O)[nH]1` , what is its reported growth?
31.8

Given the compound `Cc1cc(Nc2ccc(Cl)cc2)nc(NCCCNc2ccnc3cc(Cl)ccc23)n1` , what is its reported growth?
-91.9

Given the compound `O=[N+]([O-])c1cccc(N=Cc2ccc3c(c2)OCO3)c1` , what is its reported growth?
118

Given the compound `Nc1nc(Nc2ccccc2)n[nH]1` , what is its reported growth?
104

###

Tested on: MALME-3M melanoma
Assay: NCI-60 one-dose screen, 48 h (100 = growth as untreated, 0 = no growth, -100 = all killed)
Settings: 10 µM
The panel holds about 83,000 compounds, 20% with a hit somewhere; the sample as a whole holds those more often.
Output TRUE for records whose growth is lower than 90%, FALSE for records at or above 90%.

Just wondering, is growth of `COc1ccc(Nc2cc(C)nc(NCCCNc3ccnc4cc(Cl)ccc34)n2)cc1` below 90%?
TRUE

Just wondering, is growth of `CSCCCNC(=O)c1ccc2c(c1)/C(=C/c1[nH]c(C)cc1C)C(=O)N2` below 90%?
TRUE

Just wondering, is growth of `COc1ccc(C(=O)/C=C/c2cc(-c3cc(OC)c(OC)c(OC)c3)n[nH]2)cc1` below 90%?
TRUE

Just wondering, is growth of `Fc1ccc2nc(-c3nc(-c4ccccc4)n4ccccc34)[nH]c2c1` below 90%?
TRUE

Just wondering, is growth of `COc1ccc(-c2cc(/C=C3\C(=O)Nc4ccc(Cl)cc43)[nH]n2)cc1OC` below 90%?
TRUE

Just wondering, is growth of `O=C(Nc1cccc(-n2cc(-c3ccncc3)c(-c3ccc(O)c(Cl)c3)n2)c1)c1cccc(C(F)(F)F)c1` below 90%?
TRUE

Just wondering, is growth of `c1ccc2c(-c3nc(N4CCOCC4)c4c5c(sc4n3)CCCCCC5)cccc2c1` below 90%?
FALSE

Just wondering, is growth of `O=C1CC[C@@H]2CCCC[C@@H]2C1` below 90%?
FALSE

Just wondering, is growth of `CN(C)CCS(=O)(=O)CCN(C)C` below 90%?
FALSE

Just wondering, is growth of `CC(=O)O[C@]1(C)CC[C@H]2[C@H](CNCCc3ccc(Cl)cc3)C(=O)O[C@@H]2C2=C(C)C(=O)C[C@H]21` below 90%?
TRUE

Just wondering, is growth of `CCOC(=O)c1ccc(NC(=O)Nc2ncc(Cl)cc2Cl)cc1` below 90%?
FALSE

Just wondering, is growth of `COc1cc(-c2cc(/C=C/C(=O)c3ccc(Cl)c(Cl)c3)[nH]n2)cc(OC)c1OC` below 90%?
TRUE

Just wondering, is growth of `CN1CC[C@@H](c2c(O)cc(O)c3c(=O)cc(-c4ccccc4Cl)oc23)[C@@H](O)C1` below 90%?
TRUE

Just wondering, is growth of `CCOC(=O)c1ccoc1` below 90%?
FALSE

Just wondering, is growth of `CCCCCCN1CCN(Cc2ccc(N(CC)CC)cc2)C(=O)C1=O` below 90%?
TRUE

Just wondering, is growth of `CC1(C)Cc2c(sc3ncn4nc(-c5ccc(O)cc5)nc4c23)CO1` below 90%?
TRUE

Just wondering, is growth of `N=C(N)c1ccc(-c2ccc(-c3cccs3)s2)cc1` below 90%?
TRUE

Just wondering, is growth of `Cc1ccc(NC(=O)Nc2cccnc2)cc1NC(=O)Nc1cccnc1` below 90%?
FALSE

Just wondering, is growth of `O=C(CSSCC(=O)c1ccc(Cl)cc1)c1ccc(Cl)cc1` below 90%?
TRUE

Just wondering, is growth of `Cc1cccc2c(NCCN(C)C)c3cccc(C(=O)NCCN(C)C)c3nc12` below 90%?
TRUE
